Target: NADPH oxidase 2 (Homo sapiens) (UniProt P04839)
Sequence (P04839 whole entry, looked up): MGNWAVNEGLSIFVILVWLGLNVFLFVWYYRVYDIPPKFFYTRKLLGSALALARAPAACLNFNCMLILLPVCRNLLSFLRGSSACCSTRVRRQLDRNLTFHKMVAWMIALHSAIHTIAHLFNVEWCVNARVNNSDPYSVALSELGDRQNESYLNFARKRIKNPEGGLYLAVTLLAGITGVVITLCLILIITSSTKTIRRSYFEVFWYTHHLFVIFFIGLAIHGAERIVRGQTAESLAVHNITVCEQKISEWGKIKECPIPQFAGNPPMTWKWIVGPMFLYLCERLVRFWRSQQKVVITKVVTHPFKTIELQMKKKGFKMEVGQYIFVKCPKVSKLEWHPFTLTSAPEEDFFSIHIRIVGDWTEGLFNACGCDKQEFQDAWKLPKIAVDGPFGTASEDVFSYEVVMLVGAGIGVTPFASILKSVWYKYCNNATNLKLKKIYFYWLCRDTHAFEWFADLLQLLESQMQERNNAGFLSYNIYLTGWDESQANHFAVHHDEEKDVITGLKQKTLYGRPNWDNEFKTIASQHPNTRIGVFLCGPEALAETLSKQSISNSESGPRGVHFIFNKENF
Assay: NOX2-dependent H2O2 signal modulators, primary screen, NOX inhibitor project, cell-based, HEK293-NOX2, PMA-stimulated, Amplex Red fluorescence (AID 1159); also: test concentration not given here
Conditions: 45 min, higher = more signal, called active from +8 up or from −8 down
Record form. Attribute: z-score. Fill in for each entry.
Answer with the value's number alone.

IN: Identify z-score associated with the compound O=C1OCC=C[C@H]2OC34C=CCN(c5ccc(Cl)cc5)C(=O)[C@H]3N(CCCCCCO)C(=O)[C@@H]4[C@@H]12 (some centres undefined)
OUT: 1.42

IN: Identify z-score associated with the compound O=C1C2C=CC(C(O)c3ccc(F)cc3)N(Nc3ccccc3)C2C(=O)N1c1ccccc1 (centres undefined)
OUT: -1.77

IN: Identify z-score associated with the compound COc1ccc([Si](C)(C)[C@@H]2[C@@H](CC(=O)N3CCC[C@H]3CO)O[C@]3(C(=O)N(C)c4c(Br)cc(C)cc43)[C@H]2C)cc1
OUT: 1.73

IN: Identify z-score associated with the compound CO[C@H]1O[C@H](CO)[C@@H](OC(=O)Nc2ccc(Oc3ccccc3)cc2)[C@H](OC(=O)Nc2ccccc2)[C@H]1OC(=O)Nc1ccccc1
OUT: -0.909

----------
Assay: PSAC antagonists in infected red cells, primary screen, cell-based, P. falciparum Indochina, OD700, 1 h (AID 1154)
Settings: P. falciparum Indochina infected RBC osmotic lysis, higher = more signal, called active from +8 up or from −8 down
Reported property: z-score
Answer with the value's number alone.

IN: Identify z-score associated with the compound CCOC(=O)C1=CCC(C(C)(C)C)N(S(=O)(=O)c2ccc(C)cc2)C1 (stereo not given)
OUT: 1.53

IN: Identify z-score associated with the compound CN1CCC(CCCO)=CC1c1ccc(CN2CCCC2)cc1 (stereo not given)
OUT: -0.274

IN: Identify z-score associated with the compound COc1ccc(C#Cc2ccc3c(c2)[C@]2(C(=O)N3)[C@H](c3ccc(O)cc3)N3[C@H](c4ccccc4)[C@H](c4ccccc4)OC(=O)[C@H]3[C@@H]2C(=O)N2CCCCCCC2)cc1
OUT: -0.212

IN: Identify z-score associated with the compound [N-]=[N+]=NCc1ccccc1C[C@]1(C(=O)NCC(O)CO)N=C(c2ccc(OCCCO)cc2)O[C@H]1c1ccccc1N=[N+]=[N-] (stereo not given in full)
OUT: 31.1

IN: Identify z-score associated with the compound O=c1cccc(C=Cc2ccccc2)o1
OUT: 2.92

----------
Experiment: modulators of S6 phosphorylation in cells, primary screen, cell-based, A549, cytoblot, luminescence, serum-stimulated (AID 1158);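 also: serum-stimulated A549 lung adenocarcinoma cells; signal is phosphorylated S6 detected by cytoblot immunostaining with HRP secondary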
Conditions: A549 phospho-S6 cytoblot, 5 h, higher = more signal
Record form. Attribute: z-score. Fill in for each entry.
Answer with the value's number alone.

IN: Identify z-score associated with the molecule CC(C)N1C(=O)C[C@@](C(=O)NCc2ccccc2)(c2ccc([N+](=O)[O-])cc2)[C@H]1c1ccc(CO)cc1
OUT: -0.081

IN: Identify z-score associated with the molecule O=C1C2C=CC(C(O)c3ccc(F)cc3)N(Nc3ccccc3)C2C(=O)N1c1ccccc1 (stereo not given)
OUT: -0.931

IN: Identify z-score associated with the molecule COc1ccc(CCNC(=O)[C@@]2(c3ccc([N+](=O)[O-])cc3)CC(=O)N(CC34CC5CC(CC(C5)C3)C4)[C@@H]2c2ccc(CO)cc2)cc1
OUT: 2

IN: Identify z-score associated with the molecule O=C1OCCC=C[C@H]2OC34C=CCN(c5ccc6ccccc6c5)C(=O)[C@H]3N(CCCCCO)C(=O)[C@@H]4C12 (stereo not given in full)
OUT: -0.37

IN: Identify z-score associated with the molecule O=C1OCCC=C[C@H]2OC34C=CCN(Cc5ccccc5)C(=O)[C@H]3N(CCCCCCO)C(=O)[C@@H]4C12 (stereo not given in full)
OUT: 1.2

IN: Identify z-score associated with the molecule O=C1O[C@@H](c2ccccc2)[C@@H](c2ccccc2)N2[C@@H](c3ccc(OCCO)cc3)[C@]3(C(=O)Nc4ccccc43)[C@@H](C(=O)Nc3nc4ccccc4s3)[C@H]12
OUT: 0.298

IN: Identify z-score associated with the molecule COCCOC(=O)N1C(=O)[C@@]2(c3cc(C#CCNC(N)=O)ccc31)[C@H](c1ccccc1OCCO)N1[C@H](c3ccccc3)[C@H](c3ccccc3)OC(=O)[C@H]1[C@@H]2C(N)=O
OUT: -0.463

IN: Identify z-score associated with the molecule [N-]=[N+]=Nc1ccccc1C[C@]1(C(=O)NCCN2CCOCC2)N=C(c2ccc(OCCCO)cc2)O[C@H]1c1ccccc1
OUT: -0.0135

IN: Identify z-score associated with the molecule CC(=O)NCCCC[C@@H]1NC(=O)[C@@H]2C[C@H](C(=O)NCCCCN(C)C)[C@H](c3ccc(O)cc3)N2C1=O
OUT: -0.051

IN: Identify z-score associated with the molecule COc1cc(CO)ccc1OC(C)=O
OUT: 1.03

IN: Identify z-score associated with the molecule Cc1ccc(S[C@]2(C(=O)NCc3ccccc3)CC(=O)N(Cc3ccccc3Cl)[C@@H]2c2ccc(CO)cc2I)cc1
OUT: 0.379

IN: Identify z-score associated with the molecule COc1ccc(C#Cc2ccc3c(c2)[C@]2(C(=O)N3)[C@H](c3ccc(O)cc3)N3[C@H](c4ccccc4)[C@H](c4ccccc4)OC(=O)[C@H]3[C@@H]2C(=O)N2CCCCCCC2)cc1
OUT: 2.87

IN: Identify z-score associated with the molecule CC(C)C(O)C1C=CC2C(=O)N(c3ccccc3)C(=O)C2N1Nc1ccc(C#N)cc1 (stereo not given)
OUT: -1.09

IN: Identify z-score associated with the molecule CCCCC=C[C@@H](NC(=O)c1ccc(C(=O)OC)cc1)c1ccccc1
OUT: 0.12

IN: Identify z-score associated with the molecule Cc1ccc(S[C@]2(C(=O)NCCN3CCOCC3)CC(=O)N(Cc3cc(C(F)(F)F)cc(C(F)(F)F)c3)[C@@H]2c2ccc(CO)cc2I)cc1
OUT: 0.704

The reported measurements were obtained from PubChem BioAssay.
